target: Fyn (UniProt P06241); experiment: phosphorylation enrichment, bacterial display (enrichment ratio); higher = better substrate or ligand; peptides without Tyr show the background;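 also: 11-residue human phosphosite peptides and single-mutation variants displayed on the E. coli surface, counted by deep sequencing, each peptide's frequency after selection divided by its frequency in the unselected input library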;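 also: frequency after pTyr selection over input frequency; kinase dosed for 20-30% of maximal phosphorylation in three min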
Sequence (P06241 whole entry, looked up): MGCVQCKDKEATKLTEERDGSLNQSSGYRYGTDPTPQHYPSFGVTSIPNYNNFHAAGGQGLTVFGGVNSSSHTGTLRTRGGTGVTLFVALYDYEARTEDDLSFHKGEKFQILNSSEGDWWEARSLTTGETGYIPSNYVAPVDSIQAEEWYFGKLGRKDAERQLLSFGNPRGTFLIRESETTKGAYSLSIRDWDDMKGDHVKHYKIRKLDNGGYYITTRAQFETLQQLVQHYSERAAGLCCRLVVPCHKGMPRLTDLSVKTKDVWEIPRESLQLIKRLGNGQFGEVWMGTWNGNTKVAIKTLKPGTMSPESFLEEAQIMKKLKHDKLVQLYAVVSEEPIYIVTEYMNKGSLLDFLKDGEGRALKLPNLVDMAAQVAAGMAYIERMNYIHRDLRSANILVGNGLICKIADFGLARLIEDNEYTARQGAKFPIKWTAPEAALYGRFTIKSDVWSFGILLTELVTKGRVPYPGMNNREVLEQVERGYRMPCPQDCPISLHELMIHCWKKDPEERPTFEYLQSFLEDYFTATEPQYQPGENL
Rule: phosphorylation enrichment under 0.5 gives Criterion not met, otherwise Criterion met.

INPUT: Could you tell me if the measured phosphorylation enrichment of SDQPDYDSVAS [GIT2_Y392_N387S] reaches 0.5 or more?
OUTPUT: Criterion met

INPUT: Could you tell me if the measured phosphorylation enrichment of FRAPGYREVVI [TNS2_Y673_YF] reaches 0.5 or more?
OUTPUT: Criterion not met

INPUT: Could you tell me if the measured phosphorylation enrichment of GPRSLYNGLVA [UCP2_Y79] reaches 0.5 or more?
OUTPUT: Criterion not met

INPUT: Could you tell me if the measured phosphorylation enrichment of FQRLQYIKQLG [SAMHD1_Y146_R145Q] reaches 0.5 or more?
OUTPUT: Criterion not met

INPUT: Could you tell me if the measured phosphorylation enrichment of FMLFQYLKQIE [RPAP3_Y569_D564Y_YF] reaches 0.5 or more?
OUTPUT: Criterion not met

INPUT: Could you tell me if the measured phosphorylation enrichment of KVKPIYFHTRG [AR_Y916_Q920R] reaches 0.5 or more?
OUTPUT: Criterion not met

INPUT: Could you tell me if the measured phosphorylation enrichment of FGVTLYPNSRE [MEP1A_Y472] reaches 0.5 or more?
OUTPUT: Criterion not met

INPUT: Could you tell me if the measured phosphorylation enrichment of RLLCEYQELMN [KRT75_Y434_R432C] reaches 0.5 or more?
OUTPUT: Criterion met

INPUT: Could you tell me if the measured phosphorylation enrichment of SGGMDYGMVGG [TNRC6B_Y1382] reaches 0.5 or more?
OUTPUT: Criterion met

INPUT: Could you tell me if the measured phosphorylation enrichment of PVDTYYDSTRG [DYNC2H1_Y2231_M2227V] reaches 0.5 or more?
OUTPUT: Criterion met

INPUT: Could you tell me if the measured phosphorylation enrichment of QAKRKYQEASK [FES_Y156] reaches 0.5 or more?
OUTPUT: Criterion met

INPUT: Could you tell me if the measured phosphorylation enrichment of GGGGSYNDFGN [HNRNPA1_Y312] reaches 0.5 or more?
OUTPUT: Criterion met

INPUT: Could you tell me if the measured phosphorylation enrichment of QGLRLYRPHLA [BTK_Y617] reaches 0.5 or more?
OUTPUT: Criterion not met

INPUT: Could you tell me if the measured phosphorylation enrichment of TDEFEYDELIV [TGM1_Y136_YF] reaches 0.5 or more?
OUTPUT: Criterion met

INPUT: Could you tell me if the measured phosphorylation enrichment of PESIMYWKFTT [NTRK3_Y744_R745W] reaches 0.5 or more?
OUTPUT: Criterion met

INPUT: Could you tell me if the measured phosphorylation enrichment of PIFEGYALPHA [ACTA1_Y171_YF] reaches 0.5 or more?
OUTPUT: Criterion met

INPUT: Could you tell me if the measured phosphorylation enrichment of PYIDSYEKDVA [PGM1_Y521_L516P] reaches 0.5 or more?
OUTPUT: Criterion met

INPUT: Could you tell me if the measured phosphorylation enrichment of KRFRIYHLAIS [BRCA2_Y3009_T3013I_YF] reaches 0.5 or more?
OUTPUT: Criterion met

INPUT: Could you tell me if the measured phosphorylation enrichment of IVAREYFSDAD [CAMK2A_Y106_E109D_YF] reaches 0.5 or more?
OUTPUT: Criterion not met

INPUT: Could you tell me if the measured phosphorylation enrichment of EVKRLYGSVCD [TC2N_Y154] reaches 0.5 or more?
OUTPUT: Criterion met

INPUT: Could you tell me if the measured phosphorylation enrichment of SMVVPYEPPEV [TP53_Y220_V216M] reaches 0.5 or more?
OUTPUT: Criterion not met

INPUT: Could you tell me if the measured phosphorylation enrichment of LEAVSYSSRYA [RNLS_Y190] reaches 0.5 or more?
OUTPUT: Criterion not met

INPUT: Could you tell me if the measured phosphorylation enrichment of YLQEIHNSNNQ [FGG_Y140_Y140H] reaches 0.5 or more?
OUTPUT: Criterion not met

INPUT: Could you tell me if the measured phosphorylation enrichment of EYYENYIEELK [PARP4_Y218_F215Y] reaches 0.5 or more?
OUTPUT: Criterion met

INPUT: Could you tell me if the measured phosphorylation enrichment of ENEGTYVCIAT [ADAMTSL3_Y1365] reaches 0.5 or more?
OUTPUT: Criterion met

INPUT: Could you tell me if the measured phosphorylation enrichment of WHYTFYNELRV [ACTC1_Y93_H90Y] reaches 0.5 or more?
OUTPUT: Criterion not met

INPUT: Could you tell me if the measured phosphorylation enrichment of FQQLFYLLQIN [IQGAP2_Y890_T894I_YF] reaches 0.5 or more?
OUTPUT: Criterion met

INPUT: Could you tell me if the measured phosphorylation enrichment of QMRLRYLAAEE [CEP120_Y884] reaches 0.5 or more?
OUTPUT: Criterion met

INPUT: Could you tell me if the measured phosphorylation enrichment of MKKMHYVDPDH [ST3GAL5_Y99] reaches 0.5 or more?
OUTPUT: Criterion not met

INPUT: Could you tell me if the measured phosphorylation enrichment of IGKAGYTDKMV [ENO1_Y236_V240M] reaches 0.5 or more?
OUTPUT: Criterion not met

INPUT: Could you tell me if the measured phosphorylation enrichment of ALWFIYSHTRS [ENG_Y614_YF] reaches 0.5 or more?
OUTPUT: Criterion not met

INPUT: Could you tell me if the measured phosphorylation enrichment of LGSNGCKKLLK [SEPSECS_Y334_Y334C] reaches 0.5 or more?
OUTPUT: Criterion met

INPUT: Could you tell me if the measured phosphorylation enrichment of HLGNQYVNVMN [SLC3A1_Y461_R456H] reaches 0.5 or more?
OUTPUT: Criterion not met

INPUT: Could you tell me if the measured phosphorylation enrichment of LSSNLYYRWLT [CNGA3_Y168_P163L] reaches 0.5 or more?
OUTPUT: Criterion met

INPUT: Could you tell me if the measured phosphorylation enrichment of CGTPDYIDPEI [PRKCG_Y521_A523D] reaches 0.5 or more?
OUTPUT: Criterion met

INPUT: Could you tell me if the measured phosphorylation enrichment of WAMLAYNRSKL [WWOX_Y293] reaches 0.5 or more?
OUTPUT: Criterion not met

INPUT: Could you tell me if the measured phosphorylation enrichment of ILLAGYLVMVI [SLC28A3_Y113] reaches 0.5 or more?
OUTPUT: Criterion met

INPUT: Could you tell me if the measured phosphorylation enrichment of DNLSNYVFQGQ [GRIN2A_Y978_N976S] reaches 0.5 or more?
OUTPUT: Criterion not met

INPUT: Could you tell me if the measured phosphorylation enrichment of LGSNTYPFLLM [SAG_Y120_T125M] reaches 0.5 or more?
OUTPUT: Criterion not met

INPUT: Could you tell me if the measured phosphorylation enrichment of PFRKLYESVKK [MKI67_Y241_W238R] reaches 0.5 or more?
OUTPUT: Criterion not met

INPUT: Could you tell me if the measured phosphorylation enrichment of VTDGKYAFKPK [GTF2E2_Y137_I133T] reaches 0.5 or more?
OUTPUT: Criterion not met

INPUT: Could you tell me if the measured phosphorylation enrichment of PFTRNYFVRAV [CYBA_Y87_YF] reaches 0.5 or more?
OUTPUT: Criterion met

INPUT: Could you tell me if the measured phosphorylation enrichment of VDLSKCITTIA [FAS_Y232_Y232C] reaches 0.5 or more?
OUTPUT: Criterion not met

INPUT: Could you tell me if the measured phosphorylation enrichment of GGMAEYTRLHN [EHHADH_Y4] reaches 0.5 or more?
OUTPUT: Criterion not met

INPUT: Could you tell me if the measured phosphorylation enrichment of HSDYQYSQRSQ [PKP2_Y168] reaches 0.5 or more?
OUTPUT: Criterion not met

INPUT: Could you tell me if the measured phosphorylation enrichment of CTTIHYTFMCN [TP53_Y234_N235T_YF] reaches 0.5 or more?
OUTPUT: Criterion met

INPUT: Could you tell me if the measured phosphorylation enrichment of LSDGPYSNSYE [EPOR_Y485_P488S] reaches 0.5 or more?
OUTPUT: Criterion met

INPUT: Could you tell me if the measured phosphorylation enrichment of IDSTPYGQWYE [RPS8_Y109_R110G] reaches 0.5 or more?
OUTPUT: Criterion met

INPUT: Could you tell me if the measured phosphorylation enrichment of EYKKKYSDADI [CKAP5_Y1860] reaches 0.5 or more?
OUTPUT: Criterion not met

INPUT: Could you tell me if the measured phosphorylation enrichment of PTTKTYFPQFD [HBA1_Y43_H46Q] reaches 0.5 or more?
OUTPUT: Criterion met

INPUT: Could you tell me if the measured phosphorylation enrichment of GFQPEYGQPAG [SYP_Y278_D277E_YF] reaches 0.5 or more?
OUTPUT: Criterion met

INPUT: Could you tell me if the measured phosphorylation enrichment of LLKMMYLMLDN [STAT1_Y203_K201M] reaches 0.5 or more?
OUTPUT: Criterion met

INPUT: Could you tell me if the measured phosphorylation enrichment of RHFTTYDTNGR [CLCA1_Y665_Y661H] reaches 0.5 or more?
OUTPUT: Criterion met
